Target: NPFF2 (Homo sapiens)
Construct: expressed in transfected cells; host or cells: NIH3T3
Assay: Receptor Selection and Amplification Technology (R-SAT) functional assay, NPFF2
Type: cell-based
Conditions: R-SAT, Table 1; Efficacy is relative to endogenous ligand; read-out: NPFF2 % Efficacy
Structures can show the parent of a compound that is named as a salt.
Let's look at some compounds and their measured Emax.
# number only, unit % dropped from output

Compound: CC(=NNC(=N)N)c1cccc(C)c1 [Compound 3017, Hydrochloride]
Data Value: 80
--
Compound: [H]/N=C(\N)NN=Cc1ccc(Cl)cc1 [Compound 4008, Hydrochloride]
Data Value: 64
--
Compound: N=C(N)NN=Cc1ccc(C(F)(F)F)cc1 [Compound 4002, Hydrochloride]
Data Value: 80

stdin: Consider the compound N=C(N)NN=Cc1ccc(F)c(Cl)c1 [Compound 2013, Hydrochloride] tested on NPFF2 (Homo sapiens); state its Emax.
stdout: 34

stdin: Consider the compound N=C(N)NN=Cc1cc2c(cc1Br)OCO2 [Compound 3015, Hydrochloride] tested on NPFF2 (Homo sapiens); state its Emax.
stdout: 70

* * *

Let's look at some compounds and their measured Emax.
Molecular target: NPFF2 (Homo sapiens)
Construct: expressed in transfected cells; host or cells: NIH3T3
Assay: Receptor Selection and Amplification Technology (R-SAT) functional assay, NPFF2
Type: cell-based
Conditions: R-SAT, Table 1; Efficacy is relative to endogenous ligand; read-out: NPFF2 % Efficacy
Where a name gives a salt, the structure may show the parent alone.
A bare number is not enough; add the unit after it.

// known answers, use as guide
Compound: C=CCOc1ccc(C=NNC(=N)N)cc1Cl [Compound 2042, Hydrochloride]
Emax: 60%

Compound: Cl.N=C(N)N/N=C/c1ccc(Br)c(Br)c1 [Compound 3093, Hydrochloride]
Emax: 89%

Compound: CC(=NNC(=N)N)c1cc(C(F)(F)F)cc(C(F)(F)F)c1 [Compound 3028, Hydrochloride]
Emax: 23%

Next, consider the following compound.
stdin: Complete the entry with Emax for N=C(N)NN=Cc1ccc(F)c(C(F)(F)F)c1 [Compound 2068, Hydrochloride]
stdout: 61%

* * *

Target: NPFF2 (Homo sapiens, UniProt Q9Y5X5)
Construct: expressed in transfected cells; host or cells: NIH3T3
Sequence (Q9Y5X5 103-522): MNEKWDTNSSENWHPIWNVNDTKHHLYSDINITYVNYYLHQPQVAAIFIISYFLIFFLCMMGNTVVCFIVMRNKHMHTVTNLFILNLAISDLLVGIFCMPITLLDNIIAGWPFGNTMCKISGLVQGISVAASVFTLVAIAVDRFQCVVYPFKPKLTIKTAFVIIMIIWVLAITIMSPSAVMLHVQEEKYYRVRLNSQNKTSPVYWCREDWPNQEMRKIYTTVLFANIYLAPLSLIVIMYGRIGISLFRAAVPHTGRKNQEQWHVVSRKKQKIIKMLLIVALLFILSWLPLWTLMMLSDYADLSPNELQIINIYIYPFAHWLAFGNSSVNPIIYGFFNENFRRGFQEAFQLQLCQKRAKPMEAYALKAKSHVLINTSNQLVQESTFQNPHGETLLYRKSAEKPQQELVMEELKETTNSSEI
Assay: Receptor Selection and Amplification Technology (R-SAT) functional assay, NPFF2
Format: cell-based
Conditions: R-SAT, Table 1; NA = No activity detectable at the highest dose tested (20 μM)
Let's look at some molecules and their measured NPFF2 pEC50.
Answer field: number only, no words.

stdin: Complete the entry with NPFF2 pEC50 for "C/C(=N\NC(=N)N)c1ccccc1"
stdout: 5.2

stdin: Complete the entry with NPFF2 pEC50 for "CCCCC/C(=N\NC(=N)N)c1ccc(C)cc1"
stdout: 6.2

stdin: Complete the entry with NPFF2 pEC50 for "CN(C)c1ccc(/C=N/NC(=N)N)cc1[N+](=O)[O-]"
stdout: 5.2

stdin: Complete the entry with NPFF2 pEC50 for "COc1ccc(/C=N/NC(=N)N)cc1I"
stdout: 5.5

stdin: Complete the entry with NPFF2 pEC50 for "COc1ccc(/C=N/NC(=N)N)cc1"
stdout: 5.0

* * *

Let's look at some compounds and their measured Emax.
Target: NPFF1 (Homo sapiens, UniProt Q9GZQ6)
Sequence (Q9GZQ6 whole entry, species assumed): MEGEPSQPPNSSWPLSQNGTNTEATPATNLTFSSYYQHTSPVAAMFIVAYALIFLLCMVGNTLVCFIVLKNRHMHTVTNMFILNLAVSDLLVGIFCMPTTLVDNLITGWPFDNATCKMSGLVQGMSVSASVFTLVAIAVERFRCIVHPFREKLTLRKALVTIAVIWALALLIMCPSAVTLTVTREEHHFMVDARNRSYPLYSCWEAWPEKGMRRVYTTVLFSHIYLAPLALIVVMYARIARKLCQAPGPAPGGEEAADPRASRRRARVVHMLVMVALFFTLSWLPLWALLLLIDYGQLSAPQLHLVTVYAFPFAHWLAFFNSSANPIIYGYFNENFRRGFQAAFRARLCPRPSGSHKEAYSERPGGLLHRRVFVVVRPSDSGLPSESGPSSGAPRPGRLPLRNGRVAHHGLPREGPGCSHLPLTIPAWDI
Experiment: Receptor Selection and Amplification Technology (R-SAT) functional assay, NPFF1
Format: cell-based
Set-up: expressed in transfected cells; host or cells: NIH3T3
Conditions: R-SAT, Table 1; Efficacy is relative to endogenous ligand; read-out: NPFF1 % Efficacy
Counter-ions that a name gives are not always drawn.
# number only, unit % dropped from output

// known answers, use as guide
Compound: CCCCC(=NNC(=N)N)c1ccc(N(C)C)cc1 (mixture of isomers)
Unit String: %
Data Value: 81
--
Compound: CC(C)Oc1ccc(C=NNC(=N)N)cc1
Unit String: %
Data Value: 51
--
Compound: N=C(N)NN=Cc1cc(C(F)(F)F)ccc1Cl [Compound 2069, Hydrochloride]
Unit String: %
Data Value: 8
--
Compound: CCOCCOc1ccc(/C=N/NC(=N)N)cc1Cl
Unit String: %
Data Value: 21
--
Compound: CCN(CCO)c1ccc(C=NNC(=N)N)c(C)c1 [Compound 3036, Hydrochloride]
Unit String: %
Data Value: 84

Next, consider the following compound.
stdin: Complete the entry with Emax for CCCCCCc1ccc(C(C)=NNC(=N)N)cc1 [Compound 3023, Hydrochloride]
stdout: 29
